Hello, the source for this data is the supplement of paper PMC11246515, in case you need it.

assay details: total protein half-life in vivo (active degradation + dilution); higher = more stable protein
condition info: wild type E. coli NCM3722; growth: P-lim chemostat; doubling time 6 h
experimental readout: total protein half-life in vivo
Your answer should be a number followed by the unit of measure.

polymer sequence	total protein half-life in vivo
MKCKRLNEVIELLQPAWQKEPDLNLLQFLQKLAKESGFDGELADLTDDILIYHLKMRDSAKDAVIPGLQKDYEEDFKTALLRARGVIKE [P0ADP9]	5.01 h
MNIENLKTKAEADISEYITKKIIELKKKTGKEVTSIQFTAREKMTGLESYDVKINLI	5.4 h
MHLSTHPTSYPTRYQEIAAKLEQELRQHYRCGDYLPAEQQLAARFEVNRHTLRRAIDQLVEKGWVQRRQGVGVLVLMRPFDYPLNAQARFSQNLLDQGSHPTSEKLLSVLRPASGHVADALGITEGENVIHLRTLRRVNGVALCLIDHYFADLTLWPTLQRFDSGSLHDFLREQTGIALRRSQTRISARRAQAKECQRLEIPNMSPLLCVRTLNHRDGESSPAEYSVSLTRADMIEFTMEH	0.458 h

Memo: "MRVLLAPMEGVLDSLVRELLTEVNDYDLCITEFVRVVDQLLPVKVFHRICPELQNASRTPSGTLVRVQLLGQFPQWLAENAARAVELGSWGVDLNCGCPSKTVNGSGGGATLLKDPELIYQGAKAMREAVPAHLPVSVKVRLGWDSGEKKFEIADAVQQAGATELVVHGRTKEQGYRAEHIDWQAIGDIRQRLNIPVIANGEIWDWQSAQQCMAISGCDAVMIGRGALNIPNLSRVVKYNEPRMPWPEVVALLQKYTRLEKQGDTGLYHVARIKQWLSYLRKEYDEATELFQHVRVLNNSPDIARAIQAIDIEKL" , reported total protein half-life in vivo: 5.81 h

* * *

assay details: total protein half-life in vivo (active degradation + dilution); higher = more stable protein
condition info: wild type E. coli NCM3722; growth: C-lim chemostat; doubling time 3 h
Would you kindly list total protein half-life in vivo for each of these sequences?
Give bare numbers, in h.

Before answering, review these 5 worked examples.
polymer sequence	recorded number
MNEFSILCRVLGSLYYRQPQDPLLVPLFTLIREGKLAANWPLEQDELLTRLQKSCDMTQVSADYNALFIGDECAVPPYRSAWVEGATEAEVRAFLSERGMPLADTPADHIGTLLLAASWLEDQSTEDESEALETLFSEYLLPWCGAFLGKVEAHATTPFWRTMAPLTRDAISAMWDELEEDSEE	3.34
MRHIFQRLLPRRLWLAGLPCLALLGCVQNHNKPAIDTPAEEKIPVYQLADYLSTECSDIWALQGKSTETNPLYWLRAMDCADRLMPAQSRQQARQYDDGSWQNTFKQGILLADAKITPYERRQLVARIEALSTEIPAQVRPLYQLWRDGQALQLQLAEERQRYSKLQQSSDSELDTLRQQHHVLQQQLELTTRKLENLTDIERQLSTRKPAGNFSPDTPHESEKPAPSTHEVTPDEP [P0AD44]	3.34
MFRPFLNSLMLGSLFFPFIAIAGSTVQGGVIHFYGQIVEPACDVSTQSSPVEMNCPQNGSIPGKTYSSKALMSGNVKNAQIASVKVQYLDKQKKLAVMNIEYN	0.288
MKTETPSVKIVAITADEAGQRIDNFLRTQLKGVPKSMIYRILRKGEVRVNKKRIKPEYKLEAGDEVRIPPVRVAEREEEAVSPHLQKVAALADVILYEDDHILVLNKPSGTAVHGGSGLSFGVIEGLRALRPEARFLELVHRLDRDTSGVLLVAKKRSALRSLHEQLREKGMQKDYLALVRGQWQSHVKSVQAPLLKNILQSGERIVRVSQEGKPSETRFKVEERYAFATLVRCSPVTGRTHQIRVHTQYAGHPIAFDDRYGDREFDRQLTEAGTGLNRLFLHAAALKFTHPGTGEVMRIEAPMDEGLKRCLQKLRNAR [P0AA39]	3.01
MTTYDRNRNAITTGSRVMVSGTGHTGKILSIDTEGLTAEQIRRGKTVVVEGCEEKLAPLDLIRLGMN	2.88

Could I get total protein half-life in vivo for every one of these entries?
1. MIRFEHVSKAYLGGRQALQGVTFHMQPGEMAFLTGHSGAGKSTLLKLICGIERPSAGKIWFSGHDITRLKNREVPFLRRQIGMIFQDHHLLMDRTVYDNVAIPLIIAGASGDDIRRRVSAALDKVGLLDKAKNFPIQLSGGEQQRVGIARAVVNKPAVLLADEPTGNLDDALSEGILRLFEEFNRVGVTVLMATHDINLISRRSYRMLTLSDGHLHGGVGHE [P0A9R7]
2. MPLLDSFTVDHTRMEAPAVRVAKTMNTPHGDAITVFDLRFCVPNKEVMPERGIHTLEHLFAGFMRNHLNGNGVEIIDISPMGCRTGFYMSLIGTPDEQRVADAWKAAMEDVLKVQDQNQIPELNVYQCGTYQMHSLQEAQDIARSILERDVRINSNEELALPKEKLQELHI
3. MSLPMLQVALDNQTMDSAYETTRLIAEEVDIIEVGTILCVGEGVRAVRDLKALYPHKIVLADAKIADAGKILSRMCFEANADWVTVICCADINTAKGALDVAKEFNGDVQIELTGYWTWEQAQQWRDAGIGQVVYHRSRDAQAAGVAWGEADITAIKRLSDMGFKVTVTGGLALEDLPLFKGIPIHVFIAGRSIRDAASPVEAARQFKRSIAELWG

Ans.
1. 2.76
2. 2.71
3. 2.29

Please look at the items below and tell me total protein half-life in vivo for each one, in order.
1. MTKYALVGDVGGTNARLALCDIASGEISQAKTYSGLDYPSLEAVIRVYLEEHKVEVKDGCIAIACPITGDWVAMTNHTWAFSIAEMKKNLGFSHLEIINDFTAVSMAIPMLKKEHLIQFGGAEPVEGKPIAVYGAGTGLGVAHLVHVDKRWVSLPGEGGHVDFAPNSEEEAIILEILRAEIGHVSAERVLSGPGLVNLYRAIVKADNRLPENLKPKDITERALADSCTDCRRALSLFCVIMGRFGGNLALNLGTFGGVFIAGGIVPRFLEFFKASGFRAAFEDKGRFKEYVHDIPVYLIVHDNPGLLGSGAHLRQTLGHIL [P0A6V8]
2. MYERYAGLIFDMDGTILDTEPTHRKAWREVLGHYGLQYDIQAMIALNGSPTWRIAQAIIELNQADLDPHALAREKTEAVRSMLLDSVEPLPLVDVVKSWHGRRPMAVGTGSESAIAEALLAHLGLRHYFDAVVAADHVKHHKPAPDTFLLCAQRMGVQPTQCVVFEDADFGIQAARAAGMDAVDVRLL
3. MMLSKKNSETLENFSEKLEVEGRSLWQDARRRFMHNRAAVASLIVLVLIALFVILAPMLSQFAYDDTDWAMMSSAPDMESGHYFGTDSSGRDLLVRVAIGGRISLMVGVAAALVAVVVGTLYGSLSGYLGGKVDSVMMRLLEILNSFPFMFFVILLVTFFGQNILLIFVAIGMVSWLDMARIVRGQTLSLKRKEFIEAAQVGGVSTSGIVIRHIVPNVLGVVVVYASLLVPSMILFESFLSFLGLGTQEPLSSWGALLSDGANSMEVSPWLLLFPAGFLVVTLFCFNFIGDGLRDALDPKDR [P0AFH6]
4. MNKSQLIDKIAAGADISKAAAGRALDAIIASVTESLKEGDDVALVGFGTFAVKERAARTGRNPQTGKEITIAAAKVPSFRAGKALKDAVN [P0ACF4]
5. MIEFSHVSKLFGAQKAVNDLNLNFQEGSFSVLIGTSGSGKSTTLKMINRLVEHDSGEIRFAGEEIRSLPVLELRRRMGYAIQSIGLFPHWSVAQNIATVPQLQKWSRARIDDRIDELMALLGLESNLRERYPHQLSGGQQQRVGVARALAADPQVLLMDEPFGALDPVTRGALQQEMTRIHRLLGRTIVLVTHDIDEALRLAEHLVLMDHGEVVQQGNPLTMLTRPANDFVRQFFGRSELGVRLLSLRSVADYVRREERADGEALAEEMTLRDALSLFVARGCEVLPVVNMQGQPCGTLHFQDLLVEA

Ans.
[2.78, 2.62, 3.23, 2.88, 2.77]
